This collection of values is drawn from patent US8410159B2.

test target: σ1-receptor (Cavia porcellus, UniProt Q60492)
Construct: guinea pig brains were homogenized; from tissue; host or cells: guinea pig brain membranes
Sequence (Q60492 whole entry): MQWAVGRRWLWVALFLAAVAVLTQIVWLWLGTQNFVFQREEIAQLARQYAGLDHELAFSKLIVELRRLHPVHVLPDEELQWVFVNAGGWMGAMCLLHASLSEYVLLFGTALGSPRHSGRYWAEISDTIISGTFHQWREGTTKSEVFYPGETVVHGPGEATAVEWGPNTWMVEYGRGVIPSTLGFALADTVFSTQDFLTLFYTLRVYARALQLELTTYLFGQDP
assay name: Sigma-1 receptor binding assay, [3H](+)-pentazocine, brain membranes
condition set: compound 10^−7 M; [3H](+)-pentazocine 0.5 nM; guinea pig brain membranes
Each entry gets NO if its inhibition at 0.1 µM stays under 80%, and YES if its inhibition at 0.1 µM is 80% or above.

Problem: Is reported inhibition at 0.1 µM greater than or equal to 80% here: "CCN(CC)CC(=O)Nc1ccn(-c2ccc(Cl)c(Cl)c2)n1"
Result: NO

Problem: Check if inhibition at 0.1 µM >= 80% (inclusive). Item: "CN(CC(=O)Nc1ccn(-c2ccc(Cl)c(Cl)c2)n1)C1CCCCC1"
Result: YES

Problem: # check: inhibition at 0.1 µM of "O=C(CN1CCCCC1)Nc1ccn(-c2ccc(Cl)c(Cl)c2)n1" is greater than or equal to 80%
Result: NO

Problem: For this molecule, is measured inhibition at 0.1 µM 80% or higher? "CCN(CC)CCNc1ccn(-c2ccc(Cl)c(Cl)c2)n1"
Result: NO

Problem: Is inhibition at 0.1 µM for Clc1ccc(-n2ccc(NCCN3CCCCC3)n2)cc1Cl.O=C(O)C(=O)O [Example 6, oxalate] at or above 80%?
Result: YES

Problem: Determine whether measured inhibition at 0.1 µM meets or exceeds 80% for "CCN(CC)CCSc1cc(C)n(-c2ccc(Cl)c(Cl)c2)n1.O=C(O)C(=O)O"
Result: YES
